Target or system Cytochrome P450 3A4 (Homo sapiens): recorded IC50 listed per item.
I only need the number, in µM, no unit after it.

# count of solved cases: 2
molecule	study-system	value-measured
NCCC(=O)Nc1cccc2c1cnn2S(=O)(=O)c1cccc2ccccc12	Cytochrome P450 3A4 (Homo sapiens)	30
O=C(Nc1ccc2cnn(S(=O)(=O)c3cccc4ccccc34)c2c1)C1CCCNC1 (racemic)	Cytochrome P450 3A4 (Homo sapiens)	260

Supply reported IC50 belonging to this molecule: O=C(Nc1ccc2cnn(S(=O)(=O)c3cccc4ccccc34)c2c1)C1CCNCC1
61

---

Sequence of the target: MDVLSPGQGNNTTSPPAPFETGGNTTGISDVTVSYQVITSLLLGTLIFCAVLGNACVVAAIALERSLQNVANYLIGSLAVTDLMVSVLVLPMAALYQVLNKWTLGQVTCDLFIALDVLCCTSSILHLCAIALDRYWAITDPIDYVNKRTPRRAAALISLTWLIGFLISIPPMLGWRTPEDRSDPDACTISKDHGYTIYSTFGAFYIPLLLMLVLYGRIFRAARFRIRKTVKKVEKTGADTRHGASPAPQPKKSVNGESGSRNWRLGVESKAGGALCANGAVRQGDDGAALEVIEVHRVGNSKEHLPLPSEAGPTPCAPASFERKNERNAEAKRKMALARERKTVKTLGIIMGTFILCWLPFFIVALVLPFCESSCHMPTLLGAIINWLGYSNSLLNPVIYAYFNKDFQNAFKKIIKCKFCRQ
# Ki listing for each entry below
Your answer should be a number followed by the unit of measure.

chemical-structure	value-measured
O=C(Nc1ccc2cnn(S(=O)(=O)c3cccc4ccccc34)c2c1)C1CCNCC1	8.5 µM

Provide measured Ki value, entry: NCCC(=O)Nc1cccc2c1cnn2S(=O)(=O)c1cccc2ccccc12
6.4 µM

---

# assay-protocol: Metabolic stability in rat microsomes assessed as half life
# Format: ADME, Microsome
experimental-readout: half-life (min)
Write the number in min without appending the unit.

Consider the reported half-life for these compounds:
compound	unit-of-measurement	half-life
O=C(Nc1ccc2cnn(S(=O)(=O)c3cccc4ccccc34)c2c1)C1CCNCC1	min	11
NCCC(=O)Nc1cccc2c1cnn2S(=O)(=O)c1cccc2ccccc12	min	28

Please turn your attention to the following entry.
Output measured half-life for this item: O=C(Nc1ccc2cnn(S(=O)(=O)c3cccc4ccccc34)c2c1)C1CCCNC1 (racemic)
8

---

# assay-protocol: Oral bioavailability in Sprague-Dawley rat at 10 mg/kg
# Type: ADME, organism-based
# condition-description: in vivo
experimental-readout: bioavailability (%)
Write the number in % without appending the unit.

Worked examples follow.
compound	bioavailability, %
O=C(Nc1ccc2cnn(S(=O)(=O)c3cccc4ccccc34)c2c1)C1CCCNC1 (racemic)	24
NCCC(=O)Nc1cccc2c1cnn2S(=O)(=O)c1cccc2ccccc12	7

Indicate the recorded bioavailability value for this compound: O=C(Nc1ccc2cnn(S(=O)(=O)c3cccc4ccccc34)c2c1)C1CCNCC1
5

---

# study-system: Cytochrome P450 2D6 (Homo sapiens)
# Sequence (P10635 whole entry): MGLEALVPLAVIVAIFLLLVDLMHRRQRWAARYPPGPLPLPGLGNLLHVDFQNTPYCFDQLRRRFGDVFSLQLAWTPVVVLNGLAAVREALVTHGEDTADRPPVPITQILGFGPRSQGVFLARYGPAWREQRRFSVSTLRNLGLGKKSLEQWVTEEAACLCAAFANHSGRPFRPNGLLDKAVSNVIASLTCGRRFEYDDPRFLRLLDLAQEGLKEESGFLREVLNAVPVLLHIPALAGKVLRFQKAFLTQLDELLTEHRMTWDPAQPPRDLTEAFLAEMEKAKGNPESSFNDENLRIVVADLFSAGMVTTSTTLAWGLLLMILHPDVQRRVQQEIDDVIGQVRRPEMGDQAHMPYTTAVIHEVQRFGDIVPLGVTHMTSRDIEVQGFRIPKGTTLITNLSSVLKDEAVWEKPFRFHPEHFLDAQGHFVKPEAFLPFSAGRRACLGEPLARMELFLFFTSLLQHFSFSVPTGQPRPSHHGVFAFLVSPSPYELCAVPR
experimental-readout: IC50 (µM)
Give just the number in µM; leave the unit off.

Specify measured IC50 for O=C(Nc1ccc2cnn(S(=O)(=O)c3cccc4ccccc34)c2c1)C1CCCNC1 (racemic) .
110
